Tested on: PC-3
Test: cells
Conditions: read-out: IC50 (nM), PC-3; SRB, 96 h; Table 11
EXPERIMENTAL_ENDPOINT: IC50

Form field IC50, entry "COc1ccc(C(=O)n2ccnc2-c2ccccc2)cc1" : > 10000 nM

---

System: MRP
Assay: Growth inhibition in MRP-mediated resistant cells (Table 14B)
Assay type: cell-based
Details: MRP1 overexpressed, n=3; read-out: IC50 ± SEM (nmol/L) HEK293-MRP1
EXPERIMENTAL_ENDPOINT: pIC50
Please report pIC50 as the negative decimal logarithm of the molar concentration, giving only the number.

Form field pIC50, entry "COc1ccc(S(=O)(=O)Nc2cccnc2Nc2ccc(O)cc2)cc1" : 6.14

---

Tested on: LNCaP
Assay: cells
Details: Homo sapiens, 96 h, read-out: IC50 ± SEM (nM), LNCaP
Checkbox rule: IC50 lower than 100 nM = fulfilled; IC50 not lower than 100 nM = not fulfilled.

Please let me know if "COc1cc(C(=O)c2csc(Nc3ccc(F)cc3)n2)cc(OC)c1OC" shows IC50 below 100 nM. fulfilled

Please let me know if CN(C)c1ccc(-c2nc(C(=O)c3ccc(F)cc3)c[nH]2)cc1 [12gb] shows IC50 below 100 nM. fulfilled

Please let me know if O=C(c1ccc(F)cc1)c1c[nH]c(-c2ccccc2C(F)(F)F)n1 [12ib] shows IC50 below 100 nM. not fulfilled

Please let me know if COc1cc(C(=O)c2cn(S(=O)(=O)c3ccccc3)c(-c3ccccc3C(F)(F)F)n2)cc(OC)c1OC [11ia] shows IC50 below 100 nM. not fulfilled

Please let me know if COc1cc(C(=O)c2coc(-c3ccccc3)n2)cc(OC)c1OC [36a] shows IC50 below 100 nM. not fulfilled

Please let me know if O=C(c1ccc(F)cc1)c1cn(S(=O)(=O)c2ccccc2)c(-c2ccc(Cl)cc2)n1 [11fb] shows IC50 below 100 nM. fulfilled

Please let me know if COc1ccc(-c2nc(C(=O)c3ccc(F)cc3)c[nH]2)cc1OC [12hb] shows IC50 below 100 nM. not fulfilled

Please let me know if O=C(c1ccc(F)cc1)c1cn(S(=O)(=O)c2ccccc2)c(-c2ccccc2C(F)(F)F)n1 [11ib] shows IC50 below 100 nM. not fulfilled

---

Tested on: PC-3
Test: cells
Settings: read-out: IC50 PC3
EXPERIMENTAL_ENDPOINT: pIC50
Please report pIC50 as the negative decimal logarithm of the molar concentration, giving only the number.

Form field pIC50, entry "COc1cccc2c1C(=O)c1c(O)c3c(c(O)c1C2=O)C[C@@](O)(C(=O)CO)C[C@@H]3O[C@H]1C[C@H](N)[C@H](O)[C@H](C)O1" : 6.40

---

Tested on: LNCaP
Test: cells
Conditions: Homo sapiens, 96 h, read-out: IC50 ± SEM (nM), LNCaP
Checkbox rule: IC50 lower than 1000 nM = Satisfied; IC50 not lower than 1000 nM = Not satisfied.

Please let me know if COc1cc(/C(=C/C#N)c2csc(-c3ccccc3)n2)cc(OC)c1OC [2c-trans] shows IC50 below 1000 nM. Satisfied

Please let me know if COc1cc(C(=O)c2cn(S(=O)(=O)c3ccccc3)c(-c3ccc(N(C)C)cc3)n2)cc(OC)c1OC [11ga] shows IC50 below 1000 nM. Satisfied

Please let me know if COc1ccc(-c2nc(C(=O)c3ccc(F)cc3)cn2S(=O)(=O)c2ccccc2)cc1OC [11hb] shows IC50 below 1000 nM. Not satisfied

Please let me know if COc1cc(/C(=N/N)c2csc(-c3ccccc3)n2)cc(OC)c1OC [2d-cis] shows IC50 below 1000 nM. Not satisfied

Please let me know if CO/N=C(/c1cc(OC)c(OC)c(OC)c1)c1csc(-c2ccccc2)n1 [2f-cis] shows IC50 below 1000 nM. Not satisfied

Please let me know if "COc1cc(-c2csc(-c3ccccc3)n2)cc(OC)c1OC" shows IC50 below 1000 nM. Not satisfied

Please let me know if COc1cc(C(=O)c2csc(-c3ccc4[nH]ccc4c3)n2)cc(OC)c1OC [66a] shows IC50 below 1000 nM. Satisfied

Please let me know if "COc1cc(C(=O)c2c[nH]c(Nc3ccccc3)n2)cc(OC)c1OC" shows IC50 below 1000 nM. Not satisfied
